// provenance: paper PMC3865801

The molecules listed here are annotated with their MTD at 96 h.
Experiment: Maximum tolerated dose (MTD) in C57BL/6 mice
Details: C57BL/6, mouse, in vivo, ip, intraperitoneal, twice daily over 3 days; read-out: MTD, multiple dosing
Report the value in mg/kg with no unit label.

CC1c2cc(-c3ccc(/C=C4/NC(=S)NC4=O)s3)ccc2C(=O)N1C (centres unmarked) [compound 135]; 60

Please turn your attention to the following entry.
Looking for the measured MTD at 96 h of O=C1NC(=S)N/C1=C/c1ccc(-c2ccc3c(c2)CCNC3=O)s1 [compound 167] , can you help?
40

* * *

Target: purified recombinant perforin (Mus musculus, UniProt P10820)
Sequence (P10820 21-554): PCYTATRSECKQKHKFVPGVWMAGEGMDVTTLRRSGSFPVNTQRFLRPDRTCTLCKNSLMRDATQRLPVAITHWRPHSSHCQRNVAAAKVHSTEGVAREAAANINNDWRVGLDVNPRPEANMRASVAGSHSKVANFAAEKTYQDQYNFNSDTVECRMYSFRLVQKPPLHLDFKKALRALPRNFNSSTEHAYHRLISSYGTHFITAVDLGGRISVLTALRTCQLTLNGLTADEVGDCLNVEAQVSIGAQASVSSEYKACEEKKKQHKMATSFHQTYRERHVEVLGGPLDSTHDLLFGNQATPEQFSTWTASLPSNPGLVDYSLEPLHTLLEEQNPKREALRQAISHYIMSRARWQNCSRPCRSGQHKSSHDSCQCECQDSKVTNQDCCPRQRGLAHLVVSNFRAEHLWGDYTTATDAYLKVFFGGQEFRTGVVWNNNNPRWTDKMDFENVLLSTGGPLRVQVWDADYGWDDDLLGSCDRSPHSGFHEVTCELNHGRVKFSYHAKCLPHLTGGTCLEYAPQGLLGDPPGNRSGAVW
Assay: cell-based
Details: lysis of Jurkat cells by purified recombinant perforin, 51Cr release, 0.1% BSA; average of at least three determinations; read-out: inhibition of Jurkat cell lysis, IC50
Parameter Measured: pIC50
Keep it numeric: pIC50 is minus log10 of the concentration in mol/L.

O=C1NC(=S)N/C1=C/c1ccc(-c2ccc(O)cc2)s1 [compound 53]; 5.11
CC(=O)OCc1ccc(-c2ccc(/C=C3/NC(=S)NC3=O)s2)cc1 [compound 58]; 5.52
O=C1NC(=S)N/C1=C/c1ccc(-c2ccc(C(=O)NCCO)cc2)s1 [compound 72]; 5.44
O=C1NC(=S)/C(=C/c2ccc3cc(-c4ccc5c(c4)CCNC5=O)ccc3n2)N1 [compound 212]; 5.59
O=C1NC(=S)N/C1=C/c1cc2ccc(-c3ccc4c(c3)CCNC4=O)cc2[nH]1 [compound 210]; 5.78

Looking for the measured pIC50 of N#Cc1cccc(-c2ccc(/C=C3/NC(=S)NC3=O)s2)c1 [compound 52] , can you help?
5.01

Looking for the measured pIC50 of NC(=O)c1ccc(-c2ccc(/C=C3/NC(=S)NC3=O)s2)cc1 [compound 61] , can you help?
5.81

* * *

Molecular target: purified recombinant perforin (Mus musculus, UniProt P10820)
Experiment: cell-based
Settings: lysis of Jurkat cells by purified recombinant perforin, 51Cr release, 0.1% BSA; average of at least three determinations; read-out: inhibition of Jurkat cell lysis, IC50
Parameter Measured: pIC50
Keep it numeric: pIC50 is minus log10 of the concentration in mol/L.

O=C1NC(=S)N/C1=C\c1cc(-c2ccc3c(c2)CNC3=O)cs1; 5.52

# returns recorded pIC50 (system: purified recombinant perforin (Mus musculus, UniProt P10820)) for CNC(=O)c1ccc(-c2ccc(/C=C3/NC(=S)NC3=O)s2)cc1
5.34

# returns recorded pIC50 (system: purified recombinant perforin (Mus musculus, UniProt P10820)) for O=C1NC(=S)N/C1=C/c1ccc(-c2ccc(Cl)cc2)s1
5.28

# returns recorded pIC50 (system: purified recombinant perforin (Mus musculus, UniProt P10820)) for CCN1Cc2cc(-c3ccc(/C=C4/NC(=S)NC4=O)s3)ccc2C1=O
6.22

# returns recorded pIC50 (system: purified recombinant perforin (Mus musculus, UniProt P10820)) for CSc1ccc(-c2ccc(/C=C3/NC(=S)NC3=O)s2)cc1
5.94

# returns recorded pIC50 (system: purified recombinant perforin (Mus musculus, UniProt P10820)) for CS(=O)(=O)c1ccc(-c2ccc(/C=C3/NC(=S)NC3=O)s2)cc1
4.86

# returns recorded pIC50 (system: purified recombinant perforin (Mus musculus, UniProt P10820)) for O=C1NC(=S)N/C1=C/c1ccc(-c2ccc3c(c2)CN(CCO)C3=O)s1
6.11

# returns recorded pIC50 (system: purified recombinant perforin (Mus musculus, UniProt P10820)) for CN(C)C(=O)c1ccc(-c2ccc(/C=C3/NC(=S)NC3=O)s2)cc1
5.16

# returns recorded pIC50 (system: purified recombinant perforin (Mus musculus, UniProt P10820)) for CC(C)N1Cc2cc(-c3ccc(/C=C4/NC(=S)NC4=O)s3)ccc2C1=O
5.35
